- protocol description: inhibitors of PMA/ionomycin-induced NF-kB reporter, primary screen, antigen receptor NF-kB inhibitor project, cell-based, HEK-293 luciferase reporter, luminescence (AID 465);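 further: 0% = stimulated DMSO wells and 100% = 10 µM reference inhibitor 5653914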
- protocol conditions: HEK-293 NF-kB luciferase reporter, at 3 µM, stronger effect = higher value
The whole screen tested about 62,000 compounds, of which about 130 (0.21%) were called active. The entries come from a sample that favours actives as a whole.
inhibition by entry:
parameter: inhibition (%)

COc1cccc2c(C)c(C(=O)O)[nH]c12 : 48.7
Cc1[nH]c2ccc(S(N)(=O)=O)cc2c1C : 14.3
C(=C\c1ccccc1)/CSc1nnc(-c2cccnc2)n1Cc1ccco1 : 11.5
Cc1cccc2cc(CN(Cc3cccs3)C(c3nnnn3C3CCCC3)C(C)C)c(=O)[nH]c12 (stereo not drawn) : 42
CC(=O)OC(C(=O)NCCc1ccccc1)c1cccnc1 (stereo not drawn) : 15.3
O=C(CN1C2CCC1CC(NC(=O)C1CC1)C2)NCc1ccccc1 (stereo not drawn) : 7.7
CC1CCCCC1NC(=O)CCS(=O)(=O)c1cccc2nonc12 (stereo not drawn) : 10.9
CC1CCCN(Cc2nc3c(c(=O)n(C)c(=O)n3C)n2Cc2cccc3ccccc23)C1 (stereo not drawn) : 30.3
CCN(CC)S(=O)(=O)c1ccc2nc(COC(=O)c3n[nH]c4ccccc34)[nH]c2c1 : 12.4
Fc1ccc(Cn2nnnc2C(c2cccs2)N2CCCCCC2)cc1 (stereo not drawn) : 9.2
CS(=O)(=O)N1CCN(C(=O)Cc2ccccc2)CC1 : 5.7
COC(=O)NC1(C(F)(F)F)NC(=O)N(C2CCCCC2)C1=O (stereo not drawn) : 9.8
CNC(=O)CSc1nnc(CCc2ccccc2)n1-c1ccccc1 : 11.6
O=C(NCc1ccco1)C1CCCN(S(=O)(=O)c2cccc3nonc23)C1 (stereo not drawn) : 0.7
COc1ccc(C)cc1NC(=O)c1[nH]c(C)c(C(C)=O)c1C : 8.7
CCn1nnc(NC(=O)c2c(OC)cccc2OC)n1 : 10.1
CCC(=O)Nc1ccccc1C(=O)N1CCN(Cc2ccccc2)CC1 : 9.5
O=C(Cc1cccs1)N1CCCC(c2nc(-c3ccc(S(=O)(=O)N4CCCC4)cc3)no2)C1 (stereo not drawn) : 6.1
CCN1C(=O)C(C(=O)NC(C)c2ccccc2)C2CC1(C)Oc1ccccc12 (stereo not drawn) : 14.7
CC(=O)Nc1cc(C(=O)O)ccc1S(=O)(=O)c1ccc(Cl)cc1 : 15
CCC(c1nnnn1C1CCCC1)N(Cc1cccs1)Cc1cc2cccc(C)c2[nH]c1=O (stereo not drawn) : 1.1
Cc1ccc2nc(S(=O)(=O)O)[nH]c2c1 : 13.2
COC(=O)[C@H](C)NC(=O)Nc1ccc(OC(F)(F)F)cc1 : 11.6
